Target: UniProt P06213
Sequence (P06213 with tags, fused parts or gaps): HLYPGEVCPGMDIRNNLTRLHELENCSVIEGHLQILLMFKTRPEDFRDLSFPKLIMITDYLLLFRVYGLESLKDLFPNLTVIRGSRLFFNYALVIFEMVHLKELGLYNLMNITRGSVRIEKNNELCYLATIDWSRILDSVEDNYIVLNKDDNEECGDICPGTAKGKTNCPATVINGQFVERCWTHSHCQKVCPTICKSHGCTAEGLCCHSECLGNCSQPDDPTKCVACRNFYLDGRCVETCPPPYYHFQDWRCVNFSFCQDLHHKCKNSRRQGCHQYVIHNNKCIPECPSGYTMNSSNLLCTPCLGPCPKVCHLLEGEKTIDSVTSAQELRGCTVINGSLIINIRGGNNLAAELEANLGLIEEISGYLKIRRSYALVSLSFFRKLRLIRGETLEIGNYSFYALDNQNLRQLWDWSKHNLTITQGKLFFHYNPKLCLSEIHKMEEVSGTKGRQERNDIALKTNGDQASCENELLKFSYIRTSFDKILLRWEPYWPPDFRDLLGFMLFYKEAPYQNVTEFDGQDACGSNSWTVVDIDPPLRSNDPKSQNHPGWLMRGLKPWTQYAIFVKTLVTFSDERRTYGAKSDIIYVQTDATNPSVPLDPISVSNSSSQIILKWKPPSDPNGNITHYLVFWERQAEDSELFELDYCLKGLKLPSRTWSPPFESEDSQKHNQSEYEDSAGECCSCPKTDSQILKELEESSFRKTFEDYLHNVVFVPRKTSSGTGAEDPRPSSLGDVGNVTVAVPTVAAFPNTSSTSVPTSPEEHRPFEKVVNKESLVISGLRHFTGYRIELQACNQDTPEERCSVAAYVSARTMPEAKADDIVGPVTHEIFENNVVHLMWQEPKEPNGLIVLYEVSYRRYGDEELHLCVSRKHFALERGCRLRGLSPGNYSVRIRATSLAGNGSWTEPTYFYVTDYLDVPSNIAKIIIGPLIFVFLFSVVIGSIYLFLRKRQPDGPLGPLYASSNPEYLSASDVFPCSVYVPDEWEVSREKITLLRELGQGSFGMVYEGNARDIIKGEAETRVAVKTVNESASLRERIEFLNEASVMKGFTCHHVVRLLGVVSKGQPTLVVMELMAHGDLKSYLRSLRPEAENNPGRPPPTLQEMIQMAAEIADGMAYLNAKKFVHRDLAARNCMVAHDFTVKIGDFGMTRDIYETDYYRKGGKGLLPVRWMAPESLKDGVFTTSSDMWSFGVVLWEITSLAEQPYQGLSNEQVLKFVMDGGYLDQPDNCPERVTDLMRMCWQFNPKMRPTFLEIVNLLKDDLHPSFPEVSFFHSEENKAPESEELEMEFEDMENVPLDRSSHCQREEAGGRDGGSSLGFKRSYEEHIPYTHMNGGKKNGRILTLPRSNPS
measured.parameter: IC50

I'm curious: which IC50 was measured for CCCc1c(OCCCOc2ccc(C(C)=O)c(OC)c2CCC)ccc2c1OC(C(=O)O)CC2 (stereo not shown) tested on UniProt P06213? 30 to 200 µM

---

System: 3T3L1 adipocyte cells
Assay: Glucose transport (3H-deoxyglucose uptake) in 3T3L1 adipocyte cells
Format: cell-based, mouse
Conditions: 3T3L1 cells, 2 nM insulin; read-out: estimated inhibition constant (Ki), glucose transport assay
Description: Glucose transport was determined using a modification of the method of S. J. Isakoff et at. (23). The assay involved measuring the effect of compounds on the uptake of ^3H-deoxyglucose into 3T3L1 adipocyte cells. […]
measured.parameter: pKi
The read-out pKi is expressed as -log10 of concentration in moles per litre.

CCCc1c(COc2ccc3c(=O)cc(C(=O)O)oc3c2CCC)ccc(C(C)=O)c1O [IM 127] :: 4.22
CCCc1c(OCCCOc2cc(O)c(-c3cc[nH]n3)cc2CC)ccc2c1OC(C(=O)O)CC2 (centres unmarked) [IM 132] :: 4.19
CCCc1c(OCc2ccc3ccccc3c2)ccc2c1OC(C(=O)O)CC2 (centres unmarked) [IM 144] :: 3.90

Now turn to the next compound.
Which pKi reading was recorded for the compound CCCc1c(OCc2ccc3ccccc3n2)ccc2c1OC(C(=O)O)CC2 (centres unmarked) [IM 143] ? 4.40
